# study.system: acetylcholine muscarinic M1 receptor (Homo sapiens, UniProt P11229)
# assay.text: muscarinic FLIPR assay: potentiation of acetylcholine-stimulated intracellular Ca2+ in CHOnfat/hM1 cells
# measurement.conditions: 4 min preincubation, then EC20 acetylcholine (3 nM final), read-out: IP Value (inflection point)
measured.parameter: pEC50
Please keep in mind that pEC50 is minus log10 of the molar concentration; only the number is needed.

smiles_str=O=C(O)c1cc(CN2CCN(c3ccc4ncsc4c3)CC2)c2ccccn2c1=O data_value=7.09
smiles_str=O=C(O)c1cc(CN2CCN(c3ccc4sccc4c3)CC2)c2ccccn2c1=O data_value=7.15
smiles_str=N#Cc1ccc(N2CCN(Cc3cc(C(=O)O)c(=O)n4ccccc34)CC2)cc1 data_value=6.21
smiles_str=N#Cc1ccc(N2CCN(Cc3cc(C(=O)O)c(=O)n4ccccc34)CC2)cn1 data_value=6.21
smiles_str=Cn1cc(N2CCN(Cc3cc(C(=O)O)c(=O)n4ccccc34)CC2)cn1 data_value=6.39

Query: Return pEC50 for the following compound: O=C(O)c1cc(CN2CCN(c3ccc(C(F)(F)F)cc3)CC2)c2ccccn2c1=O
Reply: 6.57

Query: Return pEC50 for the following compound: N#Cc1cc2cc(N3CCN(Cc4cc(C(=O)O)c(=O)n5ccccc45)CC3)ccc2o1
Reply: 7.04

Query: Return pEC50 for the following compound: O=C(O)c1cc(CN2CCN(c3ccc(Br)cc3)CC2)c2ccccn2c1=O
Reply: 6.88

* * *

# study.system: acetylcholine muscarinic M1 receptor (Homo sapiens)
# Sequence (P11229 1-460): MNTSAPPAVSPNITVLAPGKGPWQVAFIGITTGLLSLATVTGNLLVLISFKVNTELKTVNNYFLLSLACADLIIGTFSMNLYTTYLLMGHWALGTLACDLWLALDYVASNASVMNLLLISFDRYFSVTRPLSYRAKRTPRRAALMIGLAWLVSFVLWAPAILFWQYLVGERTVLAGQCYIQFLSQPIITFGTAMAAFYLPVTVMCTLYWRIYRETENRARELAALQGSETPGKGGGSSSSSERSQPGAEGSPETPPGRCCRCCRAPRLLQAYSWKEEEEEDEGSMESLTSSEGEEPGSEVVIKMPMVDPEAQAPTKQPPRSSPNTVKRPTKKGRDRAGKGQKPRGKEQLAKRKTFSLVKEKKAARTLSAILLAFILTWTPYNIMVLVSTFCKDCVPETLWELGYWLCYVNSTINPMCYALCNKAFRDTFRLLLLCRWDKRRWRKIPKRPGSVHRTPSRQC
# assay.text: muscarinic FLIPR assay: potentiation of acetylcholine-stimulated intracellular Ca2+ in CHOnfat/hM1 cells
# measurement.conditions: 4 min preincubation, then EC20 acetylcholine (3 nM final), read-out: IP Value (inflection point)
pEC50: −log10 of the molar value.
Assign class by pEC50: not lower than 6 means Criterion met; lower than 6 means Criterion not met.

compound="CSc1cc(N2CCN(Cc3cc(C(=O)O)c(=O)n4ccccc34)CC2)ccn1 [Example 153]" qualitative_label="Criterion met"
compound="CN1CCN(Cc2cc(C(=O)O)c(=O)n3ccccc23)C(c2cccc(F)c2)C1=O (stereo not shown) [Example 155]" qualitative_label="Criterion not met"
compound="O=C(O)c1cc(CN2CCN(c3ccccc3)C(=O)C2c2cccc(F)c2)c2ccccn2c1=O (stereo not shown) [Example 160]" qualitative_label="Criterion met"
compound="CS(=O)(=O)c1cc(N2CCN(Cc3cc(C(=O)O)c(=O)n4ccccc34)CC2)ccn1 [Example 154]" qualitative_label="Criterion not met"
compound="O=C(O)c1cc(CN2CCN(c3cc4ccccc4cn3)CC2)c2ccccn2c1=O [Example 133]" qualitative_label="Criterion met"
compound="O=C(O)c1cc(CN2CCOCC2)c2ccccn2c1=O [Example 179]" qualitative_label="Criterion not met"

Query: Exam item: decide whether the reported pEC50 for C=Cc1cc(N2CCN(Cc3cc(C(=O)O)c(=O)n4ccccc34)CC2)ccn1 [Example 148] is at least 6.
Reply: Criterion met
